- TARGET OR SYSTEM: His6-ubiquitin (UniProt P0CG48 1-76)
- ASSAY SUMMARY: BLI
MEASURED PARAMETER: pKd
Scale for pKd: -log10 of concentration given in mol/L; no unit attached.

QUERY: Which value of pKd has been reported for RHKQEEQDRLLALQLQKEVDKEQM (domain or fragment, UniProt Q8IYW5 439-462, looked up) [GST-RNF168-MIU2 (439-462)] in the records?
RESULT: 4.77
